Below: a set of entries, each annotated with reported melting point.

compound=CC(C)(C)c1nc2cc(N3CCOCC3)c(N=C=S)cc2s1 measured_attribute="melting point" obs_value="141 to 143 °C"
compound=N#CC1=Cc2ccccc2OC1 measured_attribute="melting point" obs_value="44 to 45 °C"
compound=COc1ccc2c(c1)-c1ncc(C(=O)O)c(=O)n1CC2 measured_attribute="melting point" obs_value="237 to 239 °C"
compound=CC(C)(c1ccc(C(O)(C(F)(F)F)C(F)(F)F)cc1)S(=O)(=O)c1ccccc1 measured_attribute="melting point" obs_value="185 °C"
compound="C[C@@]1(c2ccccc2)OC(c2ccccc2)=NC[C@H]1O (racemic)" measured_attribute="melting point" obs_value="130 °C"
compound=CC(C)CCOc1ccc(-n2cc(C(=O)O)cn2)cc1C#N measured_attribute="melting point" obs_value="210 to 211 °C"
compound=CCCCC12COC(c3ccc(Br)cc3)(OC1)SC2 measured_attribute="melting point" obs_value="110 to 112 °C"
compound=COCCOCCOc1ccc2cc(C(=O)O)[nH]c2c1 measured_attribute="melting point" obs_value="99 to 102 °C"

(Q) Tell me the measured melting point of `CC(C)N1CCC(NC(=O)Nc2ccccc2CCc2cc(C(C)(C)C)c(O)c(C(C)(C)C)c2)CC1` , please.
(A) 191 to 193 °C

(Q) Please give the measured melting point for this compound: `COc1ccc(C(=O)NCCCCCNC(=O)c2ccc(OC)cc2)cc1`
(A) 160 to 161 °C

(Q) Looking for the measured melting point of CN1c2ccccc2CCC1c1ccccc1 (configuration not stated) , can you help?
(A) 99 to 101 °C

(Q) Any idea what its melting point is? The compound is `N#CC(=NO)c1cc(F)ccc1F`
(A) 64 to 67 °C

(Q) What value of melting point has been recorded for this entry: `CC(C)c1ccccc1Sc1c(O)cc(-c2ccc(OCC3CCCCC3)cc2)oc1=O`
(A) 187 to 188 °C

(Q) Look up melting point for this compound: `Cc1nc(C(=O)NC(C)(CO[N+](=O)[O-])CO[N+](=O)[O-])cs1`
(A) 78 to 81 °C

(Q) # melting point lookup, item `O=C(c1cncnc1)c1ccc(Cl)cc1Cl`
(A) 75 to 78 °C

(Q) Look at this compound and give its reported melting point. `CN(C(=O)CCSC(c1ccccc1)(c1ccccc1)c1ccccc1)c1nnc(-c2cccnc2)s1`
(A) 60 to 75 °C

(Q) # get_value(readout='melting point', item= `CC(=O)Nc1ccc(Oc2ccc3c(c2)OCC(=O)N3)cc1` )
(A) 230 to 232 °C

----------
Measured Attribute: melting point

Known melting point results, listed for orientation:
molecule=O[C@@H](COc1cccc(-c2noc3ccsc23)c1)CN1CCN(c2cccc(Cl)c2)CC1 obs_value="118 to 120 °C"
molecule=CCOC(=O)COC(=O)c1cccnc1C#N obs_value="74 °C"
molecule=CCOCc1nc2c(N)nc3cc(-c4ccccc4)ccc3c2n1CC1CCNCC1 obs_value="142 to 143 °C"
molecule=CC(=O)OCc1cn(C)c2ccccc2c1=O obs_value="142 to 146 °C"

(Q) Given the entry O=C(Nc1ccc(C(=O)N2Cc3ccccc3Cc3ccccc32)cc1)C1CC=CCC1 (stereo unspecified) , report its measured melting point.
(A) 234 to 236 °C

(Q) Any idea what its melting point is? The molecule is `O=C(NCCCc1ccncc1)N(CCCCC(F)(F)F)CCC12CC3CC(CC(C3)C1)C2`
(A) 117 to 119 °C

(Q) Would you mind telling me what melting point value was observed for COc1ccc(-n2nnnc2C(F)(F)F)cc1C1=CC2(CCCN(C(=O)c3ccccc3)C2)OC1 (stereo unspecified) ?
(A) 154 to 156 °C

(Q) Need melting point, item `N#Cc1ccc2cc(S)ccc2c1`
(A) 113 to 115 °C

(Q) Which melting point is listed for `O=C(NN=Cc1ccc2ccccc2n1)c1cccc([N+](=O)[O-])c1` ?
(A) 217 to 218 °C

----------
Measured Attribute: melting point

In the examples that follow, each entry is paired with its recorded melting point.
molecule=NC(=O)c1nnn(Cc2cc(Br)cc(C(Cl)=C(Cl)Cl)c2)c1N measured_attribute="melting point" obs_value="175 to 177 °C"
molecule="CC1(C(=O)NCCc2ccc(CCC(=O)O)cc2)C=CN=N1 (stereo not given)" measured_attribute="melting point" obs_value="202 to 205 °C"
molecule="CC(=O)OCSC1=CCC2C3CCC4=CC(=O)C=CC4(C)C3(F)C(O)CC12C (stereo not given)" measured_attribute="melting point" obs_value="193 to 194 °C"
molecule=Cc1noc(NS(=O)(=O)c2ccccc2-c2ccccc2)c1Cl measured_attribute="melting point" obs_value="132 to 134 °C"

(Q) Please look up its melting point: `COc1ccc(C)cc1NC(=O)Nc1ccc(N2CCN(C(=O)Nc3ccc(NC(C)=O)cc3Cl)CC2)cc1`
(A) 155 to 157 °C

(Q) Given N#CC1(C#N)C2CC(C(Cl)C2Cl)C1(Cl)Cl (stereo not given) , state its recorded melting point.
(A) 126 °C

(Q) Given the entry `Cc1noc(NS(=O)(=O)c2ccccc2-c2ccc(-c3ncco3)cc2-c2ncco2)c1C` , report its measured melting point.
(A) 108 to 113 °C

(Q) # input molecule: `CCCCCN1CCN(O)C1=O` ; wanted: its melting point
(A) 60 to 61 °C

(Q) Returns the measured melting point for the input molecule. Input: NCc1sc(C(c2ccc(Cl)cc2)c2c(Cl)cc(-n3ncc(=O)[nH]c3=O)cc2Cl)nc1-c1ccccc1 (stereo not given)
(A) 170 °C

(Q) Quick one: melting point for `O=[N+]([O-])c1c(O)nc(N2CCSCC2)nc1O` ?
(A) 220 to 223 °C

----------
Reported melting point by item:

Some solved cases for reference:
molecule=CC(C)(c1ccc(O)cc1)c1ccc(O)c(C(=O)Oc2ccccc2)c1 measured_attribute="melting point" obs_value="140 °C"
molecule=COC(=O)c1ccccc1Oc1nc(Oc2ccccc2C(=O)OC)nc(Oc2ccccc2C(=O)OC)n1 measured_attribute="melting point" obs_value="58 to 63 °C"
molecule=Cc1c(NC(=O)c2ccc(-c3ccc(Cl)s3)cc2)ccc2cc(CN3CCCCC3)cnc12 measured_attribute="melting point" obs_value="212 to 213 °C"

Next:
(Q) What does the record list as melting point for O=C1NC(=O)C(Cc2ccc(OCCON=Cc3ccc(-c4ccccc4)cc3)cc2)S1 (centres undefined) ?
(A) 124 to 127 °C

----------
Each entry below lists one item and its recorded melting point value.

molecule=Cc1cccc(-c2ccc(O)cc2C=O)c1 measured_attribute="melting point" obs_value="148 to 150 °C"
molecule=COc1c(C(C)(C)C)cc(COc2ccc(C=C3SC(=S)NC3=O)cc2)cc1C(C)(C)C measured_attribute="melting point" obs_value="213 to 218 °C"

(Q) What does the data say about its melting point? Entry: CC(C)CCC(C)Oc1c(-c2ccc(S(C)(=O)=O)cc2)cnn(-c2ccc(F)cc2)c1=O (stereo unspecified)
(A) 102 to 103 °C

(Q) Dear colleague, I am looking for the recorded melting point of the following molecule: `CCC(=O)CCc1ccc(OC)c(S(N)(=O)=O)c1`
(A) 135 to 138 °C

(Q) Item under review: `CC(C)(C)OC(=O)Nc1ccc(C#Cc2nccs2)cc1N` . Reported melting point?
(A) 182 °C

(Q) Which melting point value belongs to `CC(C)(O)c1ccc(CN)cc1` ?
(A) 62 to 64 °C

(Q) Name the reported melting point value associated with the molecule `c1ccc(COCC2c3ccccc3-c3ccccc32)cc1`
(A) 69.5 to 70 °C

----------
Measured Attribute: melting point

Solved cases (10 shown):
molecule="CC(C)C1(c2ccccc2OCCCCBr)C(=O)N(C)c2ccccc21 (centres undefined)" measured_attribute="melting point" obs_value="98 to 100 °C"
molecule=O=C1NC(=Cc2c(Cl)cccc2Cl)C(=O)C1=NO measured_attribute="melting point" obs_value="232 °C"
molecule=C[C@@H](Cn1ncc2ccc3c(c21)O[C@@H](CO)CO3)NC(=O)OCc1ccccc1 measured_attribute="melting point" obs_value="116 to 117 °C"
molecule=COC(=O)NC[C@H]1CN(c2cc(F)c(N3CCC(n4ncnn4)CC3)c(F)c2)C(=O)O1 measured_attribute="melting point" obs_value="168 to 170 °C"
molecule=COc1cc(-c2nc3ccc(OCCCl)cc3n2Cc2ccccc2)cc(OC)c1OC measured_attribute="melting point" obs_value="129 °C"
molecule="CN(C)Cc1ccc(CSCCNC(=C[N+](=O)[O-])NCC(O)c2ccccc2)o1 (centres undefined)" measured_attribute="melting point" obs_value="115 to 116 °C"
molecule=Cc1c(-c2ccccc2)oc2c(CS(=O)(=O)CCCl)cccc2c1=O measured_attribute="melting point" obs_value="158 to 161 °C"
molecule="COc1ccc2c(c1)[C@@H](O)[C@H](Br)CO2 (relative stereo)" measured_attribute="melting point" obs_value="67 to 72 °C"
molecule=N#CSc1c(C2CC2)[nH]c(Cl)c1C#N measured_attribute="melting point" obs_value="123 °C"
molecule=CCn1ncc2c3ncn(Cc4ccccc4)c(=O)c3cnc21 measured_attribute="melting point" obs_value="198 to 200 °C"

(Q) Would you mind telling me what melting point value was observed for `CCCOc1cccc(C(=O)O)c1O` ?
(A) 114 to 118 °C

(Q) // melting point lookup, key: `COc1cccc2c(=O)n3c(cc12)S(=O)(=O)CCC3`
(A) 251 to 252 °C

(Q) Can you share its melting point? I mean this molecule: `O=[N+]([O-])c1oc2ccc(Cc3nnn[nH]3)cc2c1-c1ccccc1`
(A) 245 to 247 °C
